# Tested on: NCI-H322M
# EXPERIMENTAL DETAILS: Cytotoxicity against human NCI-H322M cells assessed as cellular growth at 10 uM by SRB assay
# Format: functional
PROPERTY MEASURED: Activity (%)
// return numeric value only (unit: %, not printed)

STRUCTURE SMILES STRING | TESTED TARGET | UNIT OF MEASURE | Activity
CC1(C)CC(=O)c2cc3c(N)c(C(=O)Nc4ccc(Cl)cc4)sc3nc2C1 | NCI-H322M | % | 113.55
Nc1c(C(=O)NCc2ccccc2)sc2nc3c(cc12)C(=O)CCC3 | NCI-H322M | % | 123.15
Cc1ccc(NC(=O)c2sc3nc4c(cc3c2N)C(=O)CCC4)cc1Cl | NCI-H322M | % | 109.22
CC1(C)CCc2cc(-c3ccn(S(=O)(=O)c4cccc(C(F)(F)F)c4)n3)ccc2O1 | NCI-H322M | % | 106.64
COc1ccc(Cl)cc1C(=O)Nc1nc2ccc(Cl)cc2s1 | NCI-H322M | % | 85.62
O=C(NCCc1ccccc1)c1[nH]c2ccccc2c1Cl | NCI-H322M | % | 98.86

Query: Requested read-out: Activity. Entry: COc1cc(/C=c2/sc3nc4ccccc4n3c2=O)cc(I)c1O
Reply: 109.21

Data origin, for the record: ChEMBL document CHEMBL2202954
